Test system: ERBB2;PIK3CA (human), P42336 [Assessment of Cell Proliferation in MCF7.1 Cells Expressed by ERBB2/ PI3K(E545K)]
Sequence (P42336 whole entry, looked up, stated change not applied): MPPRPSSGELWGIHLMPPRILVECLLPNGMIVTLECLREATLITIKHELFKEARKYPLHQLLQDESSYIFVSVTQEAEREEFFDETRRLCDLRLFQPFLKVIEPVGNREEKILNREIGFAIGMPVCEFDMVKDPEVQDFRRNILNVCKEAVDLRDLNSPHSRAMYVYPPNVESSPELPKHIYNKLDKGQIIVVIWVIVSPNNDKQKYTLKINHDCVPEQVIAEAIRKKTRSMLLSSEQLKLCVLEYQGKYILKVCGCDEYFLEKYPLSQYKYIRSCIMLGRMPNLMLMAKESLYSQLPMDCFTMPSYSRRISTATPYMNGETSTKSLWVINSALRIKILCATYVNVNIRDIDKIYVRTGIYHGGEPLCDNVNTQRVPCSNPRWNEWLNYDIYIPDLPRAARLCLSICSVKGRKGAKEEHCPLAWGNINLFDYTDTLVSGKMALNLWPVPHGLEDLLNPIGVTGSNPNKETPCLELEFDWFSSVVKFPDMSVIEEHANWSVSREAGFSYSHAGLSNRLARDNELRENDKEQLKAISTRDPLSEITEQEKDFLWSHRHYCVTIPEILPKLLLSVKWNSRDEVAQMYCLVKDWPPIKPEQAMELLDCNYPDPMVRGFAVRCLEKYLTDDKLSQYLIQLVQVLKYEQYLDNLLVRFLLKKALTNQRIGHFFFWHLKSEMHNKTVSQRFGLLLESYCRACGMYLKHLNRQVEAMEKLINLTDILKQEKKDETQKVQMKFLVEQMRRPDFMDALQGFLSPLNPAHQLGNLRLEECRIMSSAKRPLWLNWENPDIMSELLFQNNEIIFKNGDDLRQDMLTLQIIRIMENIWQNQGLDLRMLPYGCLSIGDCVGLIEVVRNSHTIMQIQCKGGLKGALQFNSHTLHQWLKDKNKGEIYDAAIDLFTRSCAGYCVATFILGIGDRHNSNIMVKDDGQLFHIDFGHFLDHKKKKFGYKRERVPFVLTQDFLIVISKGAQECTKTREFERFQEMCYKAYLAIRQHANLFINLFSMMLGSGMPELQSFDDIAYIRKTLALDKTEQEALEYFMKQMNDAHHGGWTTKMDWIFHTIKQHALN
PROTOCOL_NOTES: Assessment of Cell Proliferation in MCF7.1 Cells Expressed by ERBB2/ PI3K(E545K)
I'd appreciate it if you could supply pEC50 values for the items below.
Quick note: pEC50 means taking -log10 of the concentration in moles per liter.

## Task For the compound `CC(C)(N)c1cc2nc(-c3cnc(N)nc3)nc(N3CCOCC3)c2s1` , give its measured pEC50 value.
## Result 6.54

## Task Fill in pEC50 for record `Nc1ncc(-c2nc(N3CCOCC3)c3sccc3n2)cn1`
## Result 6.37

## Task Retrieve pEC50 measured for `CN(Cc1cc2nc(-c3cnc(N)nc3)nc(N3CCOCC3)c2s1)S(C)(=O)=O` and print it.
## Result 6.77

###

EXPERIMENTAL_TARGET: CDK2 (human)
PROTOCOL_NOTES: Enzyme Assay
STATED_CONDITIONS: concentration not given here
PARAMETER_MEASURED: inhibition (%)
Numeric only. Scale: %

## Task State its inhibition for this compound: `O=S(=O)(c1cccc2cnccc12)N1CCCNCC1`
## Result 18

## Task Please report inhibition for the following compound: `COC(=O)c1ccc(Nc2nc(OCC3CCCCC3)c3nc[nH]c3n2)cc1`
## Result 25

## Task Indicate the recorded inhibition value for this compound: `CC[C@@H](CO)Nc1nc(OCC2CCCCC2)c2nc[nH]c2n1`
## Result 62

## Task Let me know recorded inhibition for `CCOC(=O)c1c[nH]c2c(=O)[nH]c3ccccc3c12` , thanks.
## Result 97

## Task Output inhibition of `CC(C)[C@H](CO)Nc1nc(OCC2CCCCC2)c2nc[nH]c2n1`
## Result 19

## Task Supply measured inhibition of `O=C(NCc1ccc(S(=O)(=O)N2CCC(n3nnc4ccccc43)CC2)s1)c1ccc(Cl)cc1` in your reply.
## Result 1

## Task Respond only with inhibition recorded for `CCOC(=O)c1c[nH]c2c(=O)[nH]c3ccc(S(=O)(=O)Nc4ccc(F)cc4)cc3c12`
## Result 12

## Task Look up and state reported inhibition for `O=C1NC(=O)/C(=C/c2ccc(-c3ccc(F)cc3O)o2)S1`
## Result 7

## Task Kindly indicate its recorded inhibition. Item: `O=C(O)c1ccc2cc3nc(-c4cccs4)c(-c4cccs4)nc3cc2c1`
## Result -11

## Task Entry `COc1ccc(C(=O)Nc2sc3c(c2C(N)=O)CCCC3)cc1OC` needs its inhibition filled in; supply it.
## Result -22

## Task Note down inhibition recorded for `CC[C@H](CO)Nc1nc(OCC2CCCCC2)c2nc[nH]c2n1`
## Result 52

## Task Specify inhibition for `CN(C(=O)C1CCCCC1)c1ccc2c(c1)nc(NC(=O)c1cccs1)n2CCC(N)=O` and stop.
## Result 7

## Task Determine from records and report inhibition for `COc1ccc(Oc2nc(OCC3CCCCC3)c3nc[nH]c3n2)cc1`
## Result 42

## Task Specify inhibition for `CC(C)[C@@H](CO)Nc1nc(OCC2CCCCC2)c2nc[nH]c2n1` and stop.
## Result 20

###

EXPERIMENTAL_TARGET: PIK3CD (Human) (UniProt O00329)
Sequence (O00329 whole entry, looked up): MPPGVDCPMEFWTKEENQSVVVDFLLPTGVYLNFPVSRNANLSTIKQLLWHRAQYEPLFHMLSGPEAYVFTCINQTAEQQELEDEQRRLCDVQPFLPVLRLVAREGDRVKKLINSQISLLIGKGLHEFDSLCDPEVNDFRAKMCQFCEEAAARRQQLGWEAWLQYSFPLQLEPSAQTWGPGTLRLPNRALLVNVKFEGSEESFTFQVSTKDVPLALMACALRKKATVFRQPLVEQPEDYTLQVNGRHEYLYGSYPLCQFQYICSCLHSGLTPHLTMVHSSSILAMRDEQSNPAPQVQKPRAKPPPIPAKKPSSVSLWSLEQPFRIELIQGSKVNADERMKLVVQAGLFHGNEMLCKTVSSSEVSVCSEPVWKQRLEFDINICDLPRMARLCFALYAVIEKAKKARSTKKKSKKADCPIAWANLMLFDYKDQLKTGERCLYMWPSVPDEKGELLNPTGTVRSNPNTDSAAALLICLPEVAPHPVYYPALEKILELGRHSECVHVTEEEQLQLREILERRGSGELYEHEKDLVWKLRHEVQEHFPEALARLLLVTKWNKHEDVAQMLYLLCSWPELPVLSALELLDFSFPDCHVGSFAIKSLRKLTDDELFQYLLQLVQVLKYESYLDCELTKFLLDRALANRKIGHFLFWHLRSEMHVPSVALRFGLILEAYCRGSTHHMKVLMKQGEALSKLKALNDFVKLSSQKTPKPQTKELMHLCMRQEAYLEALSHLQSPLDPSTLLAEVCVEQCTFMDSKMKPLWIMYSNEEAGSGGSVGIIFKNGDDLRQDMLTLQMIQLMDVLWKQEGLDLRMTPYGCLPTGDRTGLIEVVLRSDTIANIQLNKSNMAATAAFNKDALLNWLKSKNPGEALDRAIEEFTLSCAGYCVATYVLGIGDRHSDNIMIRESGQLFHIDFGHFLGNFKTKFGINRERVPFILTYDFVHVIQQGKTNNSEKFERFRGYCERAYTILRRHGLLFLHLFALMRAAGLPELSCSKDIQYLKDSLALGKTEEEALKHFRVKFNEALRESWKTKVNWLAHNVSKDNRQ
PROTOCOL_NOTES: Assessment of PIK3CD Kinase Activity
PARAMETER_MEASURED: pKi
pKi is a log-scale quantity: -log10 of the concentration expressed in molar.

## Task Give the reported value of pKi for this record: CC(Nc1ncnc(N)c1C#N)c1nc2ccc(F)cc2c(C(=O)N(C)C)c1-c1ccccn1 (stereo unspecified)
## Result 8.11

## Task Give the measured pKi for `C[C@H](Nc1ncnc(N)c1C#N)c1nc2ccc(F)cc2c(C(=O)O)c1-c1ccccc1`
## Result 7.13

## Task // Input: Cc1c(-c2ccccc2[S+](C)[O-])nc2cc(F)cc(F)c2c1Nc1cncc(N2CCOCC2)c1 (stereo unspecified) . Output its pKi only.
## Result 8.41

## Task Identify the reported pKi for the following entry. `C[C@H](Nc1ncnc(N)c1C(N)=O)c1nc2ccc(F)cc2c(C(=O)O)c1-c1ccccc1`
## Result 8.15

## Task Note down pKi recorded for Cc1c(-c2ccccc2[S+](C)[O-])nc2cc(F)cc(F)c2c1Nc1cc(N2CCOCC2)cnc1N1CCOCC1 (stereo unspecified)
## Result 7.29

## Task Assign pKi to the following record: `Cc1c(N2CCN(C(=O)N(C)C)CC2)nc2cc(F)cc(F)c2c1Nc1cncc(N2CCOCC2)c1C(=O)N(C)C`
## Result 7.09
